test-system: Transcriptional enhancer factor TEF-1 (Homo sapiens)
protocol-details: Inhibition of pSF-CMV-P-FLAG tagged human TEAD1 palmitoylation transfected in HEK293 cells at 10 uM incubated for 6 hrs by Western blot analysis relative to control
Format: cell-based
outcome-measure: inhibition (%)

Cn1cc2c3cc(C(=O)O)ccc3n(-c3ccc(C(F)(F)F)cc3)c2n1    90
C[C@@H](NC(=O)c1ccc2c(-c3ccc(C(F)(F)F)cc3)cccc2c1)c1cccc(N)n1    83
CNS(=O)(=O)c1ccc(NCc2ccccc2)c(-c2cn(C)cn2)c1    96

###

test-system: Transcriptional enhancer factor TEF-1 (Homo sapiens, UniProt P28347)
Sequence (P28347 whole entry, the tested form may be a part): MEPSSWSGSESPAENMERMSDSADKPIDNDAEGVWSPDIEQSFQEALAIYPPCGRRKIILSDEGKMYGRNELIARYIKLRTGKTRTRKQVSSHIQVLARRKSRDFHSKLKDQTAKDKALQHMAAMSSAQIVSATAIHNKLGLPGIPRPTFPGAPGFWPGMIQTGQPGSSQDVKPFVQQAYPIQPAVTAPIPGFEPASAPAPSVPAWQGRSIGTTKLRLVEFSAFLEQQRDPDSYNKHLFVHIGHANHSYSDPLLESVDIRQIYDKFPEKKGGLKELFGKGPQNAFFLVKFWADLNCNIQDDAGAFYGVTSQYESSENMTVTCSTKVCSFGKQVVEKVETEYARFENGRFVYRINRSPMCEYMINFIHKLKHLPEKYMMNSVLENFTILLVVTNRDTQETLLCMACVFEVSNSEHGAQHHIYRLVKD
protocol-details: Binding affinity to human TEAD1 (209 to 426 residues) expressed in Escherichia coli BL21 Star (DE3) assessed as change in melting temperature incubated for 2 hrs by measuring tryptophane fluorescence by Nano Differential scanning fluorometry
outcome-measure: ΔTm (°C)

In the examples that follow, each entry is paired with its recorded ΔTm.
Cn1cc2c3cc(C(=O)O)ccc3n(-c3ccc(C(F)(F)F)cc3)c2n1    13.4
C[C@H](NC(=O)c1ccc2c(-c3ccc(C(F)(F)F)cc3)cccc2c1)c1cccc(N)n1    14.5
O=c1[nH]c(-c2nccnc2Nc2ccc(C(F)(F)F)cc2)no1    11.2
C[C@H](NC(=O)c1ccc2c(-c3ccc(C(F)(F)F)cc3)cccc2c1)c1ccccn1    10.8

(I) C[C@@H](NC(=O)c1ccc2c(-c3ccc(C(F)(F)F)cc3)cccc2c1)c1cccc(N)n1
(II) CNS(=O)(=O)c1ccc(Nc2ccc(C(F)(F)F)cc2)c(-c2cn(C)cn2)c1
(III) CNS(=O)(=O)c1ccc(NCc2ccccc2)c(-c2cn(C)cn2)c1
Task: List the 3 entries from lowest ΔTm to highest ΔTm value. As an answer, provide the labels arranged in the order called for.
Result: III, I, II
(III: 3.4 °C, I: 5.5 °C, II: 10.2 °C)

Where do the numbers come from? From ChEMBL document CHEMBL5143725.
